These entries and their values trace back to patent US20140142040A1.

Molecular target: T1, human activated protein C (human), P04070
T1 chain 1: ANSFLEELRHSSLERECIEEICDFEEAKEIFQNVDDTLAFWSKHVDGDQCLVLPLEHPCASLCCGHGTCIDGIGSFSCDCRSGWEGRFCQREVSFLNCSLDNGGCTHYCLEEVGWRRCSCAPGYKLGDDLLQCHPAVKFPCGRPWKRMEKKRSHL
T1 chain 2: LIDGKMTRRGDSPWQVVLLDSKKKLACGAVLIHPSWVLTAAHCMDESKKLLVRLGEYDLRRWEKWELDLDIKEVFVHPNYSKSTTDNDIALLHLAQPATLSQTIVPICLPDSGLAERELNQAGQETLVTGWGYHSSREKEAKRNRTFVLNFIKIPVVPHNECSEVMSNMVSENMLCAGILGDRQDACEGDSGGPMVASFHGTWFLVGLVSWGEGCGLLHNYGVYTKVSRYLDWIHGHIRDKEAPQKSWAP
measured.metric: Kd (nM)
Field format: number, assumed nM, no unit text.

DrKIn-I (Daboia russelii Kunitz Inhibitor-I), A8Y7N4 25-90 (protein, modifications not checked) QDRPKFCNLAPESGRCRGHLRRIYYNPDSNKCEVFFYGGCGGNDNNFETRKKCRQTCGAPRKGRPT yielded Kd of 2.6
